# credit: patent US20220265819A1

biological target: T1, full length recombinant human 2N4R tau (amino acids 1-441) (human, UniProt P10636 1-758); test: SPR Biacore SCK, IgG on Protein A, tau analyte
T1 construct: Bought (rPeptide); recombinant, non-phosphorylated; also called recombinant tau
T1 sequence (P10636 other isoform, or with tags, fused parts or gaps limits assumed): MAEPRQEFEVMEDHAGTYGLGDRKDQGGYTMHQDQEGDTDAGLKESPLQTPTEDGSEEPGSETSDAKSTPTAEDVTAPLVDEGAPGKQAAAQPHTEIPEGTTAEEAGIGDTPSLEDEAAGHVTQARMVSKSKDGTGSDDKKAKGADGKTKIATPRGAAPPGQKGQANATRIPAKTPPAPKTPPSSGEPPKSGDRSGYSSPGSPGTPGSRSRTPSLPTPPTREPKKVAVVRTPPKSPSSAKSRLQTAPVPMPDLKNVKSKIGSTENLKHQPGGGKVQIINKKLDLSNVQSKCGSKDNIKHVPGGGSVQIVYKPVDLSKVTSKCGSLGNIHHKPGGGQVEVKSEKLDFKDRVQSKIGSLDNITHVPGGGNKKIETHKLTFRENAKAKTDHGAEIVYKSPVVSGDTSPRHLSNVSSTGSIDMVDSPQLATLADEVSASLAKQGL
observable: koff (s⁻¹)
Numbers only, in s⁻¹.

* Clone 37 (VH6Vκ5), humanised variant of clone #28, human IgG1 (antibody, V domains shown, also called VH6VK5) VH: QVQLQESGPGLVKPSETLSLTCTVSGFSLNNYDMSWVRQAPGKGLEWIGTVSTTYRRYYADSVKGRFTISRDNSKNTLDLQMTSLTAEDTATYFCAASGIWGRGTLVTVSS VL: DIQMTQSPSTLSASVGDRVTITCQSSQRVSSSYLAWYQQKPGQPPKRLIFLASTLESGVPSRFSGSGSGTEFTLTISSLQPDDFATYYCAGTYTGSIWAFGGGTKVEIK | 0.00544
* Clone 17 (VH1Vκ5), humanised variant of clone #28, human IgG1 (antibody, V domains shown, also called VH1VK5) VH: QSLQESGGGLVKPSETLSLTCTVSGFSLNNYDMSWVRQAPGKGLEWIGTVSTTYRRYYASWAKGRFTISKTSSTTVDLKMTSLTAEDTATYFCAASGIWGRGTLVTVSS VL: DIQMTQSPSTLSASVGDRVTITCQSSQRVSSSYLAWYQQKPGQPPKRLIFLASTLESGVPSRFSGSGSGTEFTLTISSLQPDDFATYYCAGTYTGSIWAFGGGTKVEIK | 0.00428

Query block: Value lookup for koff; key = Clone 35 (VH6Vκ2), humanised variant of clone #28, human IgG1 (antibody, V domains shown, also called VH6VK2) VH: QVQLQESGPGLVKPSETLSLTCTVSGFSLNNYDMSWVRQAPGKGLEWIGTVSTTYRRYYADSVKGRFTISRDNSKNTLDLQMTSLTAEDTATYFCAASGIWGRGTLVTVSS VL: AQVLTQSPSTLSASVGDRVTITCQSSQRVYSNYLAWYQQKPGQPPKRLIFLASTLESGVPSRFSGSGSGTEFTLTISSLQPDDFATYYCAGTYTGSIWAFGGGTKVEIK
Result block: 0.00533
